Would you kindly list pIC50 for each of these compounds?
# tested system: IL-17A/A (Homo sapiens, UniProt Q16552)
# Sequence (Q16552 24-155): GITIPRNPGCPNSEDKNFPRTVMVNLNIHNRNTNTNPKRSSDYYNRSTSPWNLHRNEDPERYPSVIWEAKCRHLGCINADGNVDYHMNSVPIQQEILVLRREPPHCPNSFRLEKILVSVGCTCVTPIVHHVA
# test description: HEK-Blue IL-17A/A inhibition assay (SEAP reporter)
# stated conditions: HEK-Blue cells (HEK 293 expressing IL-17RA, IL-17RC, Act1); IL-17A/A stimulation; 20 hours; SEAP read at A630; 4-parameter fit
pIC50: −log10 of the molar value.

**Query** Tell me pIC50 reported for CC(C)n1nccc1C(=O)N[C@H](C(=O)Nc1ccc([C@H](C)C(=O)NC(CO)C(F)(F)F)cc1F)C(C1CC1)C1CC1 (single isomer, unassigned) [Compound 28]
**Result** 6.00 to 7.00

**Query** Tell me pIC50 reported for CNc1cc(NC(=O)[C@@H](NC(=O)c2ccnn2C(C)C)C(C2CC2)C2CC2)c(F)cc1C(C)C(=O)NCC(F)(F)F (single isomer, unassigned) [Compound 164]
**Result** > 7.00

**Query** Tell me pIC50 reported for CC(C(=O)NCC(F)(F)F)c1cc(F)c(NC(=O)[C@@H](NC(=O)c2ccnn2C(C)C)C(C2CC2)C2CC2)cc1Cl (single isomer, unassigned) [Compound 108]
**Result** 6.00 to 7.00

**Query** Tell me pIC50 reported for COC(=O)C(NC(=O)[C@@H](C)c1ccc(NC(=O)[C@@H](NC(=O)c2ccnn2C(C)C)C(C2CC2)C2CC2)c(F)c1)C(F)(F)F (stereo partly drawn) [Compound 62]
**Result** 6.00 to 7.00

**Query** Tell me pIC50 reported for CCn1nccc1C(=O)N[C@H](C(=O)Nc1ccc([C@@H](C)C(=O)N(C)CC(F)(F)F)cc1F)C1CCCCCC1 (single isomer, unassigned) [Compound 3]
**Result** 6.00 to 7.00

**Query** Tell me pIC50 reported for CCn1nccc1C(=O)N[C@H](C(=O)Nc1cc(OC(F)(F)F)c(C(C)C(=O)NCC(F)(F)F)cc1F)C(C1CC1)C1CC1 (stereo partly drawn) [Compound 248]
**Result** < 6.00

---

# tested system: IL-17A/A (Homo sapiens)
# Sequence (Q16552 24-155): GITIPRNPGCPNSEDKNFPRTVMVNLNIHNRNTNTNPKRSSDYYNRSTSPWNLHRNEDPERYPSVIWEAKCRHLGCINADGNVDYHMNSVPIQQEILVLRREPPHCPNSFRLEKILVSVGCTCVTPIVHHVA
# test description: HEK-Blue IL-17A/A inhibition assay (SEAP reporter)
# stated conditions: HEK-Blue cells (HEK 293 expressing IL-17RA, IL-17RC, Act1); IL-17A/A stimulation; 20 hours; SEAP read at A630; 4-parameter fit
property label: IC50

**Query** Tell me IC50 reported for CC(C(=O)N(C)CC(F)(F)F)c1cc(F)c(NC(=O)[C@@H](NC(=O)c2ccnn2C(C)C)C(C2CC2)C2CC2)cc1OC(F)(F)F (some centres unmarked) [Compound 257]
**Result** < 0.1 µM

**Query** Tell me IC50 reported for CCOC(=O)Nc1cc(NC(=O)[C@@H](NC(=O)c2ccnn2C(C)C)C(C2CC2)C2CC2)c(F)cc1C(C)C(=O)NCC(F)(F)F (some centres unmarked) [Compound 255]
**Result** > 1 µM

**Query** Tell me IC50 reported for CC(C(=O)N1CCC(C(N)=O)C1C(F)(F)F)c1cc(F)c(NC(=O)[C@@H](NC(=O)c2ccnn2C(C)C)C(C2CC2)C2CC2)cc1C(F)(F)F (some centres unmarked) [Compound 250]
**Result** < 0.1 µM

**Query** Tell me IC50 reported for CC(C)n1nccc1C(=O)N[C@H](C(=O)Nc1ccc([C@H](C)C(=O)N2CCOC2C(F)(F)F)cc1F)C(C1CC1)C1CC1 (single isomer, unassigned) [Compound 48]
**Result** 0.1 to 1 µM

**Query** Tell me IC50 reported for COc1cc(NC(=O)[C@@H](NC(=O)c2ccnn2C(C)C)C(C2CC2)C2CC2)c(F)cc1C(C)C(=O)N1CC(O)CC1C(F)(F)F (single isomer, unassigned) [Compound 213]
**Result** 0.1 to 1 µM

**Query** Tell me IC50 reported for CC(C)n1nccc1C(=O)N[C@H](C(=O)Nc1cc(CCN(C)C)c([C@H](C)C(=O)NCC(F)(F)F)cc1F)C(C1CC1)C1CC1 [Compound 166]
**Result** 0.1 to 1 µM

**Query** Tell me IC50 reported for CC(C)n1nccc1C(=O)N[C@H](C(=O)Nc1ccc(C(CN2CCOCC2)C(=O)NCC(F)(F)F)cc1F)C(C1CC1)C1CC1 (single isomer, unassigned) [Compound 131]
**Result** 0.1 to 1 µM

**Query** Tell me IC50 reported for COc1cc(NC(=O)[C@@H](NC(=O)c2ccnn2C(C)C)C(C2CC2)C2CC2)c(F)cc1C(C)C(=O)NC(CO)C(F)(F)F (single isomer, unassigned) [Compound 180]
**Result** < 0.1 µM

**Query** Tell me IC50 reported for CC(C)n1nccc1C(=O)N[C@H](C(=O)Nc1ccc([C@H](C)C(=O)NC(C2CCOC2)C(F)(F)F)cc1F)C(C1CC1)C1CC1 (some centres unmarked) [Compound 67]
**Result** < 0.1 µM

**Query** Tell me IC50 reported for CC(C(=O)NCC(F)(F)F)c1cc(F)c(NC(=O)[C@@H](NC(=O)c2ccnn2C(C)C)C2CCC(F)(F)CC2)cc1OC(F)(F)F (single isomer, unassigned) [Compound 220]
**Result** > 1 µM

**Query** Tell me IC50 reported for CC(C)n1nccc1C(=O)N[C@H](C(=O)Nc1ccc([C@H](C)C(=O)NC(Cc2ccccn2)C(F)(F)F)cc1F)C(C1CC1)C1CC1 (some centres unmarked) [Compound 27]
**Result** > 1 µM
